- Test system: TNF production from human peripheral blood mononuclear cells (PBMC)
- Test name: TNF production from human PBMC, Cytometric Bead Array
- Format: cell-based
- Setup conditions: Medium; test compound 1 μg/ml; Table 16
Where no end group is shown, it is not given here.
Measurement name: TNF (pg/mL)
Give the value in pg/mL but do not write pg/mL after it.

State the recorded TNF for this entry: hBD3: human beta defensin 3, SEQ ID NO:3; prepared using chemical synthesis, Peptide Institute Inc. (GIINTLQKYYCRVRGGRCAVLSCLPKEEQTGKCSTRGRKCCRRKK; ends and bridges not checked; cysteine pairing not given here; listed as Homo sapiens) 0

Item under review: hBD1: human beta defensin 1, SEQ ID NO:1; prepared using chemical synthesis, Peptide Institute Inc. (DHYNCVSSGGQCLYSACPIFTKIQGTCYRGKAKCCK; ends and bridges not checked; cysteine pairing not given here; listed as Homo sapiens) . Reported TNF? 1

Would you kindly share the measured TNF for hBD2: human beta defensin 2, SEQ ID NO:2; produced recombinantly in E. coli (Example 1); hBD2 of Tables 16-18 was prepared by chemical synthesis (GIGDPVTCLKSGAICHPVFCPRRYKQIGTCGLPGTKCCKKP; ends and bridges not checked; cysteine pairing not given here; listed as Homo sapiens) ? 0

For the substance shown here, hBD4 variant: consists of amino acids 3-39 of hBD4, SEQ ID NO:5; prepared using chemical synthesis (ELDRICGYGTARCRKKCRSQEYRIGRCPNTYACCLRK; hBD-4 variant consisting of amino acids 3-39 of SEQ ID NO4) , give the reported TNF. 0

Request the reported TNF associated with rhBD2: recombinant hBD2, which is identical to hBD2 as used in Example 1 (GIGDPVTCLKSGAICHPVFCPRRYKQIGTCGLPGTKCCKKP; not fully specified; ends and bridges not checked; UniProt O15263 24-64, looked up) 1
